measured-on: CHO cells expressing α2β1 integrin (Homo sapiens, UniProt P05556+P17301)
Sequence (P17301 whole entry, one chain of several): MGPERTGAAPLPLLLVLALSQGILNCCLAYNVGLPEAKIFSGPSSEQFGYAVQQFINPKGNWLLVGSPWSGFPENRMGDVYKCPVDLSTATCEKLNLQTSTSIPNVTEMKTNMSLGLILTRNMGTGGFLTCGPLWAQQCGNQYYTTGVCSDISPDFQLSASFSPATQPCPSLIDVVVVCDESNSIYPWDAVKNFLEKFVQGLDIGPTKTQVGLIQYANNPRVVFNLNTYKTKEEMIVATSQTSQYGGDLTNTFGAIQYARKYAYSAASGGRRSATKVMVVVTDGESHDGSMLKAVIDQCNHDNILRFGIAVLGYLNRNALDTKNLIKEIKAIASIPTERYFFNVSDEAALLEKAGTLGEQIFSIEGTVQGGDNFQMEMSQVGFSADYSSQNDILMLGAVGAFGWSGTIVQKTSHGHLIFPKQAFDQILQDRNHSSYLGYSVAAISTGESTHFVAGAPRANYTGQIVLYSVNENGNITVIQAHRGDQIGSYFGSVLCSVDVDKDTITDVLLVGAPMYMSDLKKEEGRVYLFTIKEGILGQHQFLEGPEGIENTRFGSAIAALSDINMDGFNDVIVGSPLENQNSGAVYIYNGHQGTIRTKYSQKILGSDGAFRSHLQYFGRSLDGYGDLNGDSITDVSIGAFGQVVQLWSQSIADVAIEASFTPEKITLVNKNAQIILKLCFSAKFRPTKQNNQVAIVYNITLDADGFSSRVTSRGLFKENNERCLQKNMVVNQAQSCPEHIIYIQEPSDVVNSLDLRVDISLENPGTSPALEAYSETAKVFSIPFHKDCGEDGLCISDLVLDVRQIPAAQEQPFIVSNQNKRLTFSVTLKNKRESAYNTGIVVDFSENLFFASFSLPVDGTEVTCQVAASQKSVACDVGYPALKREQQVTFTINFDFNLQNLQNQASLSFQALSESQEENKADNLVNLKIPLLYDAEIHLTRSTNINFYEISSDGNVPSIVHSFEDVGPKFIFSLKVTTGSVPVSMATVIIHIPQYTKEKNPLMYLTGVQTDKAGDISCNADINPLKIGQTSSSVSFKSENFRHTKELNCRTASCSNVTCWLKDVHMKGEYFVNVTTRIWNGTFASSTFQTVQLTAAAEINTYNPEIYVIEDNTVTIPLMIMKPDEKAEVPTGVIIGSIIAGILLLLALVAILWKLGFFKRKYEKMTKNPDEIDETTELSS
test: Cell adhesion assay, CHO-α2 cells on collagen type I
Type: cell-based, Chinese Hamster
condition-notes: CHO
measured-attribute: Emax at 100 µM (%)

O=C(c1ccccc1)c1cccc(NS(=O)(=O)c2cccc(-c3ccc(F)cc3)c2)c1	79

1 = Cn1cccc1C(=O)Nc1ccc(NS(=O)(=O)c2cccc(-c3ccc(F)cc3)c2)cc1
2 = CN(C)c1ccc(N(CCO)S(=O)(=O)c2cccc(-c3ccc(F)cc3)c2)cc1
Pick one: 1 or 2 . Which one has the lower reported Emax at 100 µM? Give the label under which the chosen entry appears.
1
